Measured protein stability index accompanies every entry in the list below.
B1: DYRK1B (parent)
chain: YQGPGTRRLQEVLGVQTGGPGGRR

- Variants of: B1
- Test Summary: protein stability index of a GFP-peptide fusion (GPS, HEK-293T) (PSI 1-6); higher = more stable;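 note: lentivirally expressed fusions sorted by FACS into six bins by GFP to DsRed ratio, PSI derived from sequencing read proportions per bin multiplied by bin number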
- Condition: c terminus: a fixed tail appended
Assay Readout: protein stability index

> print(dat)
              sequence.chain  measured.value
 1  NQGPGTRRLQEVLGVQTGGPGGRR            4.63
 2  YQGPGTRRLQEVLGVQTGMPGGRR            2.75
 3  YQGPHTRRLQEVLGVQTGGPGGRR            3.17
 4  YQGPGTRRLQEVMGVQTGGPGGRR            3.31
 5  YQGPGTRRLQEVLGEQTGGPGGRR            3.44
 6  YQGPGTRRLQEVLGVQTGGPAGRR            3.25
 7  YQGPATRRLQEVLGVQTGGPGGRR            3.44
 8  YQGPGTRRLQEVLGVQTGGPGGQR            3.38
 9  YQGPGTRRLQEVLGVQTGDPGGRR            3.58
10  YQGPGTRMLQEVLGVQTGGPGGRR            2.35
11  YQGPGTRRLQEVLGVQTGVPGGRR            3.19
12  YQDPGTRRLQEVLGVQTGGPGGRR            3.83
13  YQGPGTRRLQEVLGVQTGGPGGRK            3.12
14  HQGPGTRRLQEVLGVQTGGPGGRR            4.78
15  YQGPGTRRLQEFLGVQTGGPGGRR            2.94
16  YQGPGTRRLQEVLGVQTGGPCGRR            2.72
17  YQGPGCRRLQEVLGVQTGGPGGRR            2.32
18  YQGPGTCRLQEVLGVQTGGPGGRR            1.51
19  YQGPGTRRLQEVLGVQTMGPGGRR            2.79
20  YQGPGTRRLQHVLGVQTGGPGGRR            2.43
21  YQGPGTRRLQEVLGVQTQGPGGRR            3.68
22  YQGPGTRRLQEVLGVQTVGPGGRR            3.06
23  YQGPGIRRLQEVLGVQTGGPGGRR            2.87
24  YQGPGTRRLQEVLGVQTGGFGGRR            2.32
25  YQGMGTRRLQEVLGVQTGGPGGRR            1.91
26  YQGPGTWRLQEVLGVQTGGPGGRR            1.77
27  YQGPGTRCLQEVLGVQTGGPGGRR            2.21
28  YQGPGTRRLQTVLGVQTGGPGGRR            3.31
29  YQGPGTRRLQEVLGVQTGGPGGKR            2.55
30  YQGPGTMRLQEVLGVQTGGPGGRR            3.21
31  YQGPGTRVLQEVLGVQTGGPGGRR            2.66
32  YQGPGTRRLQEVLGVQCGGPGGRR            2.95
33  YQGPGTERLQEVLGVQTGGPGGRR            4.05
34  YQGPGTRRLEEVLGVQTGGPGGRR            3.82
35  YQGPGTRRLQEVLGVQTGKPGGRR            3.43
36  YQGPGTRRLQEVLGVQTGGPNGRR            3.04
37  YQGPGTRRLQEVHGVQTGGPGGRR            3.94
38  YQGPWTRRLQEVLGVQTGGPGGRR            1.08
39  YQGPGTRRLQEVLGVQTGGPKGRR            2.74
40  YQGPGTRRCQEVLGVQTGGPGGRR            3.21
41  YQGKGTRRLQEVLGVQTGGPGGRR            2.63
42  YQGPGTRRLQEGLGVQTGGPGGRR            3.32
43  YQGPGTRRLQERLGVQTGGPGGRR            2.91
44  YQGPGTRRLQEVAGVQTGGPGGRR            3.58
45  YQGPGTRRLQEVLGVQHGGPGGRR            3.69
46  YQGPGTRRLQEVLGVQTGGPGFRR            2.17
